Source: patent US20040067915A1

experimental.system: angiotensin II AT1 receptor
assay.details: Assay A: Angiotensin II Binding Activity (125I-AII displacement, rat uterine membrane preparation)
measure: IC50 (nM)
// return numeric value only (unit: nM, not printed)

Lab note: need IC50 with angiotensin II AT1 receptor for entry "CCCCc1nc(Cl)nn1Cc1ccc(-c2ccccc2C(=O)O)cc1" , please look it up.
1300

Same thing, different molecule: "CCCCc1nc(C(F)(F)CCC)n(Cc2ccc(-c3ccccc3-c3nnn[nH]3)cc2)n1"
160

Same thing, different molecule: "CCCCc1cn(CC2CCCCC2)c(=O)n1Cc1ccc(-c2ccccc2-c2nnn[nH]2)nc1"
20

Same thing, different molecule: "CCCc1nc(CCC(C)C)n(Cc2ccc(-c3ccccc3-c3nnn[nH]3)cc2)n1"
6.4

Same thing, different molecule: "CCCCc1nc(Cl)n(Cc2ccc(-c3ccccc3-c3nnn[nH]3)cc2)n1"
700

Same thing, different molecule: "CCCCc1nc(Cl)nn1Cc1ccc(-c2ccccc2-c2nnn[nH]2)cc1"
84

Same thing, different molecule: "CCCCc1nc(CCC)nn1Cc1ccc(-c2ccccc2-c2nnn[nH]2)nc1"
72

---

experimental.system: angiotensin II receptor (rabbit aortic rings) (Oryctolagus cuniculus, UniProt P34976)
Construct: The thoracic aorta was removed, cleaned of adherent fat and connective tissue and then cut into 3-mm ring segments; from tissue; host or cells: rabbit thoracic aorta rings, endothelium removed
Sequence (P34976 1-359): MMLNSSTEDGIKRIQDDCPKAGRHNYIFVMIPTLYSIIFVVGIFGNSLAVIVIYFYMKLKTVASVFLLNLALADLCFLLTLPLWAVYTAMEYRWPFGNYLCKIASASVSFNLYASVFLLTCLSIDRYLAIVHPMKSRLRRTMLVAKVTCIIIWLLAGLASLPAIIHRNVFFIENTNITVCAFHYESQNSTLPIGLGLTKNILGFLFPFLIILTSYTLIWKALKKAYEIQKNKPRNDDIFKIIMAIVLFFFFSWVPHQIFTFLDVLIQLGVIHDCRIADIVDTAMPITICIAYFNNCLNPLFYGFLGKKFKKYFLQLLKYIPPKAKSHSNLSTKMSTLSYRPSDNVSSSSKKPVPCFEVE
assay.details: Assay B: In vitro Vascular Smooth Muscle Response for AII (rabbit aortic rings, pA2)
Type: cell-based
measurement.setup: two determinations given as a/b
measure: Kb (nM)
// return numeric value only (unit: nM, not printed)

Item under review: CCCCc1nn(CC(=O)OCC)c(=O)n1Cc1ccc(-c2ccccc2-c2nn[nH]n2)cc1 [Compound 86] . Reported Kb?
15.8

Same thing, different molecule: CCCCc1nc(CCCC2CCCCC2)n(Cc2ccc(-c3ccccc3-c3nnn[nH]3)cc2)n1 [Compound 57]
1000

Same thing, different molecule: CCCCc1nc2c(OCC)nnc(OCC)c2n1Cc1ccc(-c2ccccc2-c2nnn[nH]2)cc1 [Compound 112]
6310

Same thing, different molecule: CCCCc1nc(Cl)c(CO)n1Cc1ccc(-n2cccc2C(=O)O)cc1 [Compound 148]
1580

Same thing, different molecule: CCCCc1nn(CCCC)c(=O)n1Cc1ccc(-c2ccccc2C(=O)O)cc1 [Compound 78]
100

Same thing, different molecule: CCCCc1nn(CCC(C)CC(C)(C)C)c(=O)n1Cc1ccc(-c2ccccc2-c2nn[nH]n2)cc1 (stereo not shown) [Compound 92]
12.6

Same thing, different molecule: CCCCc1nn(CC(OCC(=O)OCC)c2ccccc2)c(=O)n1Cc1ccc(-c2ccccc2-c2nn[nH]n2)cc1 (stereo not shown) [Compound 107]
5.01
